Biological target: T1, glutamate dehydrogenase (rGDH, recombinant) (Clostridium difficile, UniProt P27346 SEQ:1-421)
T1 sequence: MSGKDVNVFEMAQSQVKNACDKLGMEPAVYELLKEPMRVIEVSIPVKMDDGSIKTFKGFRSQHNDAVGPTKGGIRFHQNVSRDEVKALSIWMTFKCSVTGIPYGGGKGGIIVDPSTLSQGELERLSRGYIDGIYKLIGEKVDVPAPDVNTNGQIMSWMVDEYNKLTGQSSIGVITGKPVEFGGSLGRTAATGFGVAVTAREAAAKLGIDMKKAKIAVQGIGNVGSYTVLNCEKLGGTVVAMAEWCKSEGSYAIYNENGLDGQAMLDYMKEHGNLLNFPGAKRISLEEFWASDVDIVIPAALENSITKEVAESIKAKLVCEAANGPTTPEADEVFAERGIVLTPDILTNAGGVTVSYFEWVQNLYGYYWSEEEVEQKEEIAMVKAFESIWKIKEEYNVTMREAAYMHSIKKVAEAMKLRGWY
Assay: pulldown; […]; 50 mM HEPES, 150 mM NaCl, 10 mM MgCl2, 5 mM KCl, 0.02% Tween-20, pH 7.2, 25 C
Conditions: tags: His-tag; expressed in E. coli; Pro-Lab Diagnostics; chain copies: 6; label: 32P
PROPERTY MEASURED: pKd
In plain terms, pKd is the concentration in mol/L turned into minus its base-10 logarithm.

Name the recorded pKd of the binder listed here: Capt-2 (ssDNA) DNA: CAGGTCCATCGAGTGGTAGGAGGAGGTATTTAGTGCCAAGCCATCTCAAACGACGTCTGAGTCGCACTGCTCCTGAACGTAC
8.36
